Recorded values, source PubChem BioAssay (NCI).

# System: MDA-MB-231 breast
# PROCEDURE_SUMMARY: NCI-60 one-dose screen, 48 h (100 = growth as untreated, 0 = no growth, -100 = all killed)
# COND: 10 µM unless noted
The panel holds about 83,000 compounds, 20% with a hit somewhere; the sample as a whole holds those more often.
growth values by entry
Write down the numeric answer in % and omit the unit.

> print(dat)
                                   compound  reading.unit  number
1  Cc1nc(Nc2ccccn2)sc1C(=O)/C=C/c1ccc(Br)cc1             %    71.1
2  [2H]c1nc(Nc2ncc(F)c(-c3cc(F)c4nc(C)n(C(C)C)c4c3)n2)c([2H])c([2H])c1CN1CCN(C([2H])([2H])C([2H])([2H])[2H])CC1             %    65.2
3        CN(C)c1ccc2cc(-c3ccccc3F)c(N)nc2c1             %    64.7
4      CC1(C)N=C(N)N=C(N)N1c1ccc(Cl)c(Cl)c1             %    68.4

Give the reported value of growth for this record: CC(=O)NCC(=O)Nc1ccc(-c2nnc3ccccn23)nc1.CC(=O)NCC(=O)Nc1ccc(-c2nnc3ccccn23)nc1.[Pt+2]
104

Give the reported value of growth for this record: COc1cc(C(=O)Nc2cc(O)c(CC=C(C)C)c(O)c2)cc2c1O[C@]1(C)CC[C@@H](O)C(C)(C)[C@H]1C2
24.1

Give the reported value of growth for this record: CN1CCN(C2=C(Cl)C(=O)c3ccccc3C2=O)CC1
41.6

Give the reported value of growth for this record: O=C1CSC(c2ccccc2Cl)N1c1nnc(Cn2cnnc2)o1 (stereo not drawn)
68.6

* * *

# Test system: OVCAR-3 ovarian
# PROCEDURE_SUMMARY: NCI-60 one-dose screen, 48 h
# COND: 10 µM unless noted
This is part of a sample that, as a whole, favours compounds with a hit. Of some 83,000 tested, about 20% had one in any assay. Calls of active or inactive are those of the source. The calls were made as follows: active = growth percent below 10; inactive = the rest.
Entry note: the call must match one of true (1) = active, false (0) = inactive

The examples below pair each entry with its known result.
> print(dat)
                                   compound  assigned.class
1  C[C@@H]1CC[C@@H]2[C@@H]1[C@H](OC(=O)/C=C/c1ccccc1)[C@]1(C3CCCCC3)C[C@@H](NC(=O)CO)[C@@]2(C)O1       false (0)
2  CC(C)(C)OC(=O)N1Cc2cc3ccccc3nc2C1CO (centres undefined)       false (0)
3            Clc1ccc(-c2nnc(-c3ccco3)o2)cc1       false (0)

Could you check what this test reported for COc1cc2oc(-c3cccc(C(=O)Nc4ccc(C#N)cc4)c3)cc(=O)c2c(O)c1OC ?
false (0)

Could you check what this test reported for CC(C)c1ccc(C(=O)OC(=O)c2ccc(C(C)C)cc2)cc1 ?
false (0)

Could you check what this test reported for C[C@@H]1C(=O)N(C[C@H](Cc2ccccc2)NC(=O)OCc2ccccc2)[C@]1(Cc1ccccc1)C(=O)OC(C)(C)C ?
false (0)

Could you check what this test reported for CCc1nc2ccccc2[nH]1 ?
false (0)

Could you check what this test reported for COc1ccc(/C(C)=N/NS(=O)(=O)c2ccc(C)cc2)cc1OC ?
false (0)

Could you check what this test reported for Cc1cc(C(c2ccccc2)c2ccccc2)ccc1NS(=O)(=O)c1ccccc1 ?
false (0)

Could you check what this test reported for C[C@@H]1C(=O)N(C[C@@H](Cc2ccccc2)NC(=O)OCc2ccccc2)[C@]1(Cc1ccccc1)C(=O)OCc1ccccc1 ?
false (0)

* * *

growth values by entry
# Tested on: OVCAR-5 ovarian
# PROCEDURE_SUMMARY: NCI-60 one-dose screen, 48 h (100 = growth as untreated, 0 = no growth, -100 = all killed)
# COND: 10 µM unless noted
About 83,000 compounds went through this panel and 20% of them were active in at least one assay; those are over-represented in the sample as a whole.
Write down the numeric answer in % and omit the unit.

> print(dat)
                                   compound  number
1                   CC(C)(C)N1CC(OC(N)=O)C1     110
2  CCOC(=O)C1C(=O)C=C(c2cnccn2)CC1c1ccc(OC)c(OC)c1 (centres undefined)     103
3  CC(c1ccc(-n2cccn2)cc1)c1cnc(N2CCc3ccc(C(N)=O)cc3C2)s1 (centres undefined)    92.8
4  N=c1ccn2c(n1)OC1C(O)C(CO)OC12 (centres undefined)    71.2
5  COc1cc2c(cc1OC)-c1ccc3cc4c(cc3c1N(CCN1CCCC1)C2)OCO4      30
6            CCOc1cc(N)ccc1C(=O)NCCCN(CC)CC    93.9

Give the reported value of growth for this record: CSc1nc2sc3cc(Cl)ccc3n2c(=N)c1C#N
107

Give the reported value of growth for this record: Nc1nc(N)c(-c2ccc(Cl)cc2)c(/C=C/c2ccc([N+](=O)[O-])cc2)n1
108

Give the reported value of growth for this record: N#Cc1c(N)n2c(nc1=Nc1ccc(Cl)cc1)sc1cc(Cl)ccc12
105

* * *

# System: NCI-H226 lung
# PROCEDURE_SUMMARY: NCI-60 one-dose screen, 48 h (100 = growth as untreated, 0 = no growth, -100 = all killed)
# COND: 10 µM unless noted
Compounds without any hit were thinned out: in the full panel of roughly 83,000, 20% have a hit.
Could you please classify the records by growth using these ranges: low end = under 50%, middle = from 50% up to 90%, high end = 90% and over

Exercise: read the entry CC1(C)C(=O)/C(=C\c2cccnc2)C[C@]2(C)[C@H]3CC=C4[C@@H]5C[C@@](C)(C(=O)O)CC[C@]5(C)CC[C@@]4(C)[C@]3(C)CC[C@@H]12 and state which class it falls under.
high end

Exercise: read the entry CCCCN1CCN(c2ccc3nc(-c4ccc5nc(-c6ccc(OCC)c(OCC)c6)[nH]c5c4)[nH]c3c2)CC1 and state which class it falls under.
low end

* * *

# Test system: UO-31 renal
# PROCEDURE_SUMMARY: NCI-60 one-dose screen, 48 h (100 = growth as untreated, 0 = no growth, -100 = all killed)
# COND: 10 µM unless noted
Compounds without any hit were thinned out: in the full panel of roughly 83,000, 20% have a hit.
PROPERTY_MEASURED: growth (%)
Write down the numeric answer in % and omit the unit.

Solved entries:
> print(dat)
                               smiles.entry  property.measured  number
1  CN1CCN(CCCOc2ccc3nc(Nc4cc(Cl)cc(Cl)c4)ccc3c2)CC1             growth   -87.6
2  CCN(CC)N=Nc1nn(C(=O)Nc2ccc(Cc3ccccc3)cc2)c2ccc(Cl)cc12             growth    65.6

Give the reported value of growth for this record: O[C@H]1CO[C@H]2[C@@H]1OC[C@@H]2Oc1ccc(Nc2ccnc(Nc3ccc(O[C@H]4CO[C@H]5[C@@H]4OC[C@@H]5O)c(Cl)c3)n2)cc1Cl
6.06

* * *

# Test system: SNB-75 CNS
# PROCEDURE_SUMMARY: NCI-60 one-dose screen, 48 h
# COND: 10 µM unless noted
The panel holds about 83,000 compounds, 20% with a hit somewhere; the sample as a whole holds those more often. The source made the active and inactive calls. The calls were made as follows: active = growth percent below 10; inactive = the rest.
Entry note: the call must match one of active, inactive

Could you check what this test reported for CS(=O)(=O)c1ccc(-c2[nH]c3ccc(F)cc3c2/C=N/O)cc1 ?
inactive

Could you check what this test reported for Nc1ccn(C2OC(F)(CO)C(O)C2F)c(=O)n1 (stereo not drawn) ?
inactive

Could you check what this test reported for Cl.Fc1c[c-]c(-c2ccccn2)c(F)c1.[Pt].c1ccc([PH+](c2ccccc2)c2ccccc2[PH+](c2ccccc2)c2ccccc2)cc1 ?
active

* * *

# Test system: DU-145 prostate
# PROCEDURE_SUMMARY: NCI-60 one-dose screen, 48 h
# COND: 10 µM unless noted
About 83,000 compounds went through this panel and 20% of them were active in at least one assay; those are over-represented in the sample as a whole. Activity calls are given as the source filed them. The calls were made as follows: active = growth percent below 10; inactive = the rest.
Entry note: the call must match one of true (active), false (inactive)

The examples below pair each entry with its known result.
COMPOUND	ASSIGNED_CLASS
Nc1ccc2c(S(=O)(=O)O)ccc(S(=O)(=O)O)c2c1	false
O=c1[nH]c(=O)n(C2CC(O)C(CO)O2)cc1CO (centres undefined)	false
O=C(Nc1ccccn1)[C@H](O)[C@@H](O)C(=O)N1CCOCC1	false

Continue with the compound presented below.
Could you check what this test reported for Cn1cc(-c2ccc3ncc(-c4ccc(CC(=O)Nc5cc(C(C)(C)C)nn5C)cc4)cc3c2)cn1 ?
false

* * *

# System: 786-0 renal
# PROCEDURE_SUMMARY: NCI-60 one-dose screen, 48 h (100 = growth as untreated, 0 = no growth, -100 = all killed)
# COND: 10 µM unless noted
Compounds without any hit were thinned out: in the full panel of roughly 83,000, 20% have a hit.
PROPERTY_MEASURED: growth (%)
Write down the numeric answer in % and omit the unit.

Give the reported value of growth for this record: Cc1cc(N(CCCNc2ccnc3cc(Cl)ccc23)Cc2ccccn2)nc(N2CCOCC2)n1
86

Give the reported value of growth for this record: CCCCNCC(=O)Nc1ccc(C(=O)OCC)cc1
99.6

Give the reported value of growth for this record: Cc1nc(Nc2ccc(NC(=S)Nc3ccccc3)cc2)nc2nc(SCc3ccccc3)[nH]c(=O)c12
99.1

Give the reported value of growth for this record: COc1ccc(/C=C(\C#N)n2nnc3ccccc32)cc1
7.4
